Where these numbers come from: patent US20240034800A1

- tested system: T1, Mouse HVEM-Fc (mouse, UniProt Q80WM9)
- T1 construct: part fused to Fc; also called mouse HVEM-mFc; mHVEM
- T1 sequence (fusion chain, looked up): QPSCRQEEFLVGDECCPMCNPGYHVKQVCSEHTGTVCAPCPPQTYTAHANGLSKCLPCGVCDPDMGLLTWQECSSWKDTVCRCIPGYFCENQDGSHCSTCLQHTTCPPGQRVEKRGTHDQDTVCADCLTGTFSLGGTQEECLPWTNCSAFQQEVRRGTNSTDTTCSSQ
- assay remarks: ELISA, coated mouse HVEM-mFc 0.2 ug/ml, anti-human IgG4-HRP, SigmaPlot fit
recorded endpoint: binding affinity (ELISA fit) (pM)
Use pM as the unit, but write only the number.

Form field: reported binding affinity (ELISA fit) of HVEM032 (antibody, human IgG4 S228P, kappa, V domains shown) VH: EVQLLESGGGLVQPGGSLRLSCAASGFTFSNYAIHWVRQAPGKGLEWVSTISSPGSTINYADSVKGRFTISRDNSKNTLYLQMNSLRAEDTAVYYCASGYLYPAMDVWGQGTLVTVSS VL: EIVLTQSPGTLSLSPGERATLSCRASRSVGKYLSWYQQKPGQAPRLLIYGASKLQSGIPDRFSGSGSGTDFTLTISRLEPEDFAVYYCQQYGSWPPFTFGQGTKVEIKR 114
